Biological target: rat M1 receptors (Rattus norvegicus, UniProt P08482)
Construct: host or cells: Chinese Hamster Ovary cells (M1-CHO)
Sequence (P08482 1-460): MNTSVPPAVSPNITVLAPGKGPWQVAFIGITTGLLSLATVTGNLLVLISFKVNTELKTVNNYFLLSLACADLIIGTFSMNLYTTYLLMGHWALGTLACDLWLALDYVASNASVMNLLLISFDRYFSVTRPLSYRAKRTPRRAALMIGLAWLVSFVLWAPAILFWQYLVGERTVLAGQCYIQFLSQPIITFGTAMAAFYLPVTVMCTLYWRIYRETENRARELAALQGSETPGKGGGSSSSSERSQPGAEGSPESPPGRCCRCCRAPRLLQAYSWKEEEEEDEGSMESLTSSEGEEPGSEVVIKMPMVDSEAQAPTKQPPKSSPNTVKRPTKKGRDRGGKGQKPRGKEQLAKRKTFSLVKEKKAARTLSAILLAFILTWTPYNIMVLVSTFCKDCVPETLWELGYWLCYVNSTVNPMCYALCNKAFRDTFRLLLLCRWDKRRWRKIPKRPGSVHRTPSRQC
Assay: PI turnover (inositol phosphate production) in M1-CHO cells
Format: cell-based
Settings: relative to mean Smax for carbachol (100.0)
Structures can show the parent of a compound that is named as a salt.
quantity kind: M1/CHO PI turnover Relative Mean Smax

> print(dat)
                                   molecule                                       tgt  observed.value
1  [2H]C([2H])([2H])c1noc(C2CN=CNC2)n1 (stereo not shown) [Compound 74, hydrochloride]  rat M1 receptors (Rattus norvegicus, UniProt P08482)            98.6
2  [2H]C([2H])([2H])Cc1noc(C2CN=CNC2)n1 (stereo not shown) [Compound 78, hydrochloride]  rat M1 receptors (Rattus norvegicus, UniProt P08482)            48.9
3  [2H]C([2H])(C)c1noc(C2CN=CNC2)n1 (stereo not shown) [Compound 66, hydrochloride]  rat M1 receptors (Rattus norvegicus, UniProt P08482)            84.0
4  [2H]C([2H])([2H])C([2H])([2H])c1noc(C2CN=CNC2)n1 (stereo not shown) [Compound 70, hydrochloride]  rat M1 receptors (Rattus norvegicus, UniProt P08482)            67.7

----------
Assay: Serum pharmacokinetics of immediate release capsules in human subjects
Type: in vivo
Settings: male, oral, 1 mg, 1 mg cohort, +/- SD, read-out: half-life of the free base (converted)
Counter-ions that a name gives are not always drawn.
quantity kind: half-life (h)

> print(dat)
                                   compound  observed.value
1  CCc1noc(C2CN=CNC2)n1 (stereo not shown) [MCD-386 HCl]            1.44

----------
Readings of PAMPA (? × 106) for the listed molecules
Experiment: PAMPA test
quantity kind: PAMPA (? × 106)

> print(dat)
                                   molecule  observed.value
1  Cc1noc(C2=CCCN(C)C2)n1 [Compound 126, reference compound]   12.75 ? × 106
2  Cc1noc(C2(F)CCCNC2)n1 (stereo not shown)    16.3 ? × 106
3  Cc1noc(C2CN3CCC2CC3)n1 (stereo not shown) [Compound 127, reference compound]    3.02 ? × 106
4   CCc1noc(C2CN=CNC2)n1 (stereo not shown)    0.05 ? × 106

----------
Assay: Serum pharmacokinetics of immediate release capsules in human subjects
Assay type: in vivo
Details: male, oral, 0.2 mg, cohort of 6 subjects receiving 0.2 mg, +/- SD, read-out: mean half-life (converted)
Where a name gives a salt, the structure may show the parent alone.
quantity kind: half-life

> print(dat)
                                   compound  observed.value
1  CCc1noc(C2CN=CNC2)n1 (stereo not shown) [MCD-386 HCl]           1.2 h

----------
Assay: Serum pharmacokinetics of immediate release capsules in human subjects
Type: in vivo
Details: male, oral immediate release capsules
Counter-ions that a name gives are not always drawn.
quantity kind: Tmax

> print(dat)
                                   compound  observed.value
1  CCc1noc(C2CN=CNC2)n1 (stereo not shown) [MCD-386 HCl]      1 to 1.5 h
